system: NCI-H292 lung cancer cells; assay: FDA drug screening, complete media vs cholesterol-free media with simvastatin (TABLE 2); type: cell-based, human; settings: NCI-H292 cells, drug in cholesterol-free media with simvastatin 0.04 μM
Structures can show the parent of a compound that is named as a salt.
endpoint_label: Cholesterol-free media + simvastatin (0.04 μM)
Provide a numeric answer; units are not to be included.

Worked examples follow.
stdin: Data request, read-out Cholesterol-free media + simvastatin (0.04 μM), for COc1cc([C@@H]2c3cc4c(cc3[C@@H](O[C@@H]3O[C@@H]5CO[C@@H](C)O[C@H]5[C@H](O)[C@H]3O)[C@H]3COC(=O)[C@H]23)OCO4)cc(OC)c1O [Etoposide]
stdout: 0.718

stdin: Data request, read-out Cholesterol-free media + simvastatin (0.04 μM), for O=C1OC(OC(=O)c2cccnc2Nc2cccc(C(F)(F)F)c2)c2ccccc21 (stereo not drawn) [Talniflumate]
stdout: 1.554

stdin: Data request, read-out Cholesterol-free media + simvastatin (0.04 μM), for CN1CC2c3ccccc3Oc3ccc(Cl)cc3C2C1 (stereo not drawn)
stdout: 0.918

stdin: Data request, read-out Cholesterol-free media + simvastatin (0.04 μM), for O=C(CCCCCCC(=O)Nc1ccccc1)NO
stdout: 0.872

stdin: Data request, read-out Cholesterol-free media + simvastatin (0.04 μM), for CC1(C)[C@@H](O[C@H]2O[C@H](C(=O)[O-])[C@@H](O)[C@H](O)[C@H]2O[C@@H]2O[C@H](C(=O)[O-])[C@@H](O)[C@H](O)[C@H]2O)CC[C@]2(C)[C@H]3C(=O)C=C4[C@@H]5C[C@@](C)(C(=O)O)CC[C@]5(C)CC[C@@]4(C)[C@]3(C)CC[C@@H]12.[K+].[K+] [Dipotassium glycyrrhizinate]
stdout: 1.125

stdin: Data request, read-out Cholesterol-free media + simvastatin (0.04 μM), for CC(COc1ccccc1)NC(C)C(O)c1ccc(O)cc1 (stereo not drawn) [Isoxsuprine hydrochloride]
stdout: 0.8873

Continuing:
stdin: Data request, read-out Cholesterol-free media + simvastatin (0.04 μM), for C[C@H](C(=O)O)c1cccc(C(=O)c2ccccc2)c1 [S-(+)-Ketoprofen]
stdout: 0.9554

stdin: Data request, read-out Cholesterol-free media + simvastatin (0.04 μM), for CCOc1ccccc1OCCN[C@H](C)Cc1ccc(OC)c(S(N)(=O)=O)c1
stdout: 1.361

stdin: Data request, read-out Cholesterol-free media + simvastatin (0.04 μM), for Cc1cccc(C)c1NC(=O)C(C)N (stereo not drawn) [Tocainide (hydrochloride)]
stdout: 1.258

stdin: Data request, read-out Cholesterol-free media + simvastatin (0.04 μM), for CC(=O)OCC[N+](C)(C)C.[Cl-] [Acetylcholine (chloride)]
stdout: 0.9864

stdin: Data request, read-out Cholesterol-free media + simvastatin (0.04 μM), for COc1ccc2[nH]c([S+]([O-])Cc3ncc(C)c(OC)c3C)nc2c1 (stereo not drawn)
stdout: 0.8585

stdin: Data request, read-out Cholesterol-free media + simvastatin (0.04 μM), for C=CC1=C(C(=O)O)N2C(=O)[C@@H](NC(=O)/C(=N\OCC(=O)O)c3csc(N)n3)[C@H]2SC1
stdout: 1.663
